Exercise: state measured TGI for each of the compounds provided.
Test system: MCF7 breast
assay_method_text: NCI tumour cell line growth inhibition, 48 h

Guide cases for TGI, answers given:
compound	system_tested	TGI
Nc1ncnc2c1ncn2[C@@H]1C[C@@H]1CO	MCF7 breast	> 100 µM
CCOC(=O)C(Cc1ccc(CCCC(=O)NCCC(=O)Nc2ccc3nc(C)sc3c2)cc1)C(=O)OCC	MCF7 breast	64.3 µM
Cc1nn(-c2ccccc2)c2c1C(c1ccc(Cl)cc1)NC(=S)N2 (centres undefined)	MCF7 breast	> 100 µM
C[C@H](CCC(=O)O)[C@H]1CC[C@H]2[C@@H]3CC[C@@H]4C[C@H](O)CC[C@]4(C)[C@H]3C[C@H](O)[C@]12C	MCF7 breast	> 100 µM
O=[N+]([O-])/C(C(Cl)=C(Cl)Cl)=C(/Cl)Sc1ccccc1	MCF7 breast	2.99 µM

Working through the 4 compounds below one at a time, give TGI for each.
1. COc1cccc2c1C(=O)c1c(O)c3c(c(O)c1C2=O)C[C@](O)(C(=O)CO)C[C@H]3O[C@@H]1C[C@@H](NC(=O)CCCCCN(C)C2(c3ccc(F)cc3)CC3CCC2C3)[C@H](O)[C@@H](C)O1 (some centres undefined)
2. CCOC(=O)NC(Nc1ccc(S(=O)(=O)Nc2nc(C)cc(C)n2)cc1)(C(=O)OCC)C(F)(F)F (centres undefined)
3. Cc1c2c(C#N)nccc2c(C)c2c1c1ccccc1n2Cc1ccccc1
4. S=C(S)NCNC(=S)S.[Zn+2]

["2.7 µM", "> 100 µM", "> 100 µM", "> 100 µM"]
